molecular target: rat CYP51 (Rattus norvegicus, UniProt Q64654)
Sequence (Q64654 whole entry): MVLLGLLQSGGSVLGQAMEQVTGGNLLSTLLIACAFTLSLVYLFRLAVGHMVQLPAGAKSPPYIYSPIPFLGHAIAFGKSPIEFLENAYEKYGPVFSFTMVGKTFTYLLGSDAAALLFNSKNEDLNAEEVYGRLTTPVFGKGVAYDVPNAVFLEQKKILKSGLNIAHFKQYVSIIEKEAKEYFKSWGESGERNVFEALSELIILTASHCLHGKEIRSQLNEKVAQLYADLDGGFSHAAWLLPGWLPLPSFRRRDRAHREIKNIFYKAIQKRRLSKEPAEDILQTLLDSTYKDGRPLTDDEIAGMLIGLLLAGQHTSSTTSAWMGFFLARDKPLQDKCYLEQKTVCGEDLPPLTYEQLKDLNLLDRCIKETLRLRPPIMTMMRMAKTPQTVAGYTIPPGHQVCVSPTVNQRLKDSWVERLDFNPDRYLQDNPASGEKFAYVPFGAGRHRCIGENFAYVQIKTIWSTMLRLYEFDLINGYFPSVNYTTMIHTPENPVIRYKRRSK
pIC50: −log10 of the molar value.
Entries annotated with measured pIC50
readout-label: pIC50

> print(dat)
                                   molecule  readout.label  value.observed
1  Clc1ccccc1C(c1ccccc1)(c1ccccc1)n1ccnc1 [Clotrimazole]          pIC50    6.15 to 6.52
2  CC(=O)N1CCN(c2ccc(OCC3COC(Cn4ccnc4)(c4ccc(Cl)cc4Cl)O3)cc2)CC1 (stereo not drawn) [Ketoconazole]          pIC50    6.15 to 6.52
3  Clc1ccc(COC(Cn2ccnc2)c2ccc(Cl)cc2Cl)c(Cl)c1 (stereo not drawn) [miconazole, Miconazole]          pIC50    6.15 to 6.52
